Multi-source literature compilation: IC50 on Serine/threonine-protein kinase MARK1 (Homo sapiens, UniProt Q9P0L2).
Sequence (Q9P0L2 whole entry): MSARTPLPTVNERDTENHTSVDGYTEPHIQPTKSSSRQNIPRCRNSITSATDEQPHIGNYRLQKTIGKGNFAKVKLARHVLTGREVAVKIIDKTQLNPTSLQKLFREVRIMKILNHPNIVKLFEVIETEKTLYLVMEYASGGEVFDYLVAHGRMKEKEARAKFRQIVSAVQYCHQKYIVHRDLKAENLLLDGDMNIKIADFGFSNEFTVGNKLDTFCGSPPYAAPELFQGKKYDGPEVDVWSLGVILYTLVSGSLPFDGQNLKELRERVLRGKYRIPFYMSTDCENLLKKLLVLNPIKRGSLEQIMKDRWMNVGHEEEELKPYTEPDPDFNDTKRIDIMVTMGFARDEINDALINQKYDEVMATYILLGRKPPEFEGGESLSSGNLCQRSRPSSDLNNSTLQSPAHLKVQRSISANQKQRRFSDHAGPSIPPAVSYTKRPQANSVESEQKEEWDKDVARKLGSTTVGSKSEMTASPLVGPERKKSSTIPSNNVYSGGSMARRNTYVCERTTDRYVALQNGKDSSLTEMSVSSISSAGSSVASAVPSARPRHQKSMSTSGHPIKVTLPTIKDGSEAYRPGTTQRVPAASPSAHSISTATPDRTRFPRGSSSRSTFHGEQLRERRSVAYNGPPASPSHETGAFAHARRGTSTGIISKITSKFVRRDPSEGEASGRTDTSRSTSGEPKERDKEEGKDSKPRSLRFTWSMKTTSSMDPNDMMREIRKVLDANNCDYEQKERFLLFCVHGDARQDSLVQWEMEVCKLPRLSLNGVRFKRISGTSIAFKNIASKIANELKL

Structure As Smiles | Measure Unit | Qualifier | IC50
CN(C)C[C@@H](OC(=O)N1Cc2c(NC(=O)C(C)(C)C)n[nH]c2C1(C)C)c1ccccc1 | µM | = | 0.115
Cc1ccc(CNc2nc(N)nc3[nH]c4cc(C)c(O)cc4c23)cc1 | µM | > | 100
N#CCNC(=O)c1ccc(-c2ccnc(Nc3ccc(N4CCOCC4)cc3)n2)cc1 | µM | < | 1
CC(C)n1cc(C(=O)c2cncc(N[C@@H]3CCN(C=O)[C@@H]3c3ccc(F)cc3)n2)c2c(N)ncnc21 | µM | = | 0.11
CC(=O)N1CC[C@@H](Nc2cncc(C(=O)c3cn(C(C)C)c4ncnc(N)c34)n2)[C@H]1c1ccccc1 | µM | = | 1.3
O=C(c1ccc(F)c(F)c1Nc1ccc(I)cc1F)N1CC(O)([C@@H]2CCCCN2)C1 | µM | > | 10
CCS(=O)(=O)N1CCN(c2ccc(Nc3ncc(C(N)=O)c(NC4CC4)n3)cc2)CC1 | µM | = | 0.004
